# Procedure text: Fraction unbound in rat brain homogenate
# Assay type: ADME, tissue-based
Attribute measured: fraction unbound
One number for each entry.

Q: Look up and report measured fraction unbound for this entry: "Cn1cc2cc(-c3cc(F)c(CN4CCn5nccc5C4=O)c(F)c3)ccc2n1"
Ans: 0.098

* * *

Would you mind telling me the reported Kp uu at 0.25 h of each entry?
# Procedure text: Unbound brain to plasma partition coefficient in Sprague-Dawley rat at 0.20 to 0.25 mg/kg, iv administered through cassette dosing after 0.25 hrs
# Assay type: ADME, organism-based
# Test settings: brain and plasma, read-out: K(p,uu,brain)

item_smiles=Cn1cc2c(-c3cc(F)c(CN4C=CC5=NCCN5C4=O)c(F)c3)cccc2n1 result=0.3

Could I get Kp uu at 0.25 h for every one of these entries?
1. Cn1cc2c(-c3cc(F)c(Cn4c(=O)cnc5ccccc54)c(F)c3)cccc2n1
2. Cn1cc2c(-c3cc(F)c(Cn4cnc5cnccc5c4=O)c(F)c3)cccc2n1
3. Cn1cc2c(-c3cc(F)c(Cn4cnc5ccccc5c4=O)c(F)c3)cccc2n1
4. Cn1cc2c(-c3cc(F)c(CN4CCc5ncccc5C4=O)c(F)c3)cccc2n1

Ans:
1. 0.77
2. 0.6
3. 0.32
4. 0.49
